Hi there, I'd appreciate the recorded GI50 for every entry that follows.
Test system: MDA-N
Test: NCI tumour cell line growth inhibition, 48 h
Active and inactive are the calls of the source. No stated cut-off is given here; in the data, active = GI50 up to about 1.1 µM and inactive = higher. Where a SMILES comes first, the peptide text is derived from it. [ ]: non-standard residue; d: D form. The star is where a group is joined. Octanoyl = CCCCCCCC(=O)*; Aib = CC(C)(N)C(=O)O; tBu = CC(C)(C)*

Value of measured GI50 for the entry CCc1cc(=O)n(/C(C)=C/c2ccccc2)n1C : > 100 µM (inactive)

// sample CCCCCCCC(=O)NC(C)(C)C(=O)NC(COC(C)(C)C)C(=O)NC(CC(C)C)C(=O)NC(C)(C)C(=O)NC(COC(C)(C)C)C(=O)NC(COC(C)(C)C)C(=O)NC(CC(C)C)C(=O)NC(C)(C)C(=O)NC(COC(C)(C)C)C(=O)NC(C(=O)NC(CC(C)C)C(=O)OC)C(C)CC (stereo not given) (Octanoyl-[Aib]S(tBu)L[Aib]S(tBu)S(tBu)L[Aib]S(tBu)IL-OMe; configuration not given here) , its GI50 was 8.65 µM (inactive)

Looking up O=C(O)C1CCCN1Cc1ccc2c(c1)OCO2 (stereo not given) , I found its GI50 recorded as > 100 µM (inactive)

Noted for CC1(C)OP(=O)(O)C=C1Sc1ccc([N+](=O)[O-])cc1[N+](=O)[O-] : its GI50 reads > 100 µM (inactive)

Entry OCCSCC(O)Cn1cnc2c(O)nc(Nc3ccccc3)nc21 (stereo not given) ; GI50 = > 100 µM (inactive)

Entry Cc1cc(Cl)nc(Nc2nc3ccccc3[nH]2)n1 ; GI50 = > 100 µM (inactive)

The compound listed as CC(C)C1OC(=O)/C=C/C=C/C=C/C=C/C=C/CC(O)CC(O)CC(O)CC(O)CC(O)CC(O)CC(O)CC(O)/C=C/C1C (stereo not given) shows GI50 equal to > 100 µM (inactive)

The reported value for COc1ccc(NC(=O)/C(CC2=Nc3ccc([N+](=O)[O-])cc3NC2O)=N\NC(=O)C[N+](C)(C)C)c(OC)c1 (stereo not given) in terms of GI50 is > 100 µM (inactive)

Entry CC1C2(C)OC(=N)C(C#N)(C(c3cccc([N+](=O)[O-])c3)O2)C1(C#N)C#N (stereo not given) — recorded GI50 = 16.5 µM (inactive)

Record Oc1ccc(-c2nc(-c3ccc4ccccc4n3)c(-c3ccc(F)cc3)[nH]2)cc1 . Reported GI50: 11.9 µM (inactive)

----------
System: Malme-3M
Test: NCI tumour cell line growth inhibition, 48 h
Active and inactive are the calls of the source. Rule as the data show it: active = GI50 up to about 1.1 µM and inactive = higher.
Just give me one of these, please: active, inactive

Request: # fetch the recorded call for C/C=C1\Oc2ccc(OC)cc2S1(=O)=O here
Result: inactive

Request: Which outcome was assigned to COc1ccc(CC(COS(=O)(=O)c2ccc(C)cc2)NS(=O)(=O)c2ccc(C)cc2)cc1 (stereo not given) in this test?
Result: inactive

Request: Record request — test call for COc1ccc2c(c1)C(=O)CCc1cc(OC)c(OC)c(OC)c1-2
Result: active

Request: Short answer needed: outcome of this test for OCC12C3C4C1C1C2C3C41CO (stereo not given) ?
Result: inactive

Request: Query: recorded result category for CC1(C)COC(c2c(-c3ccccc3)noc2C[S+]([O-])c2ccccc2)=N1 (stereo not given) in this test
Result: inactive

Request: Hello, I am checking results. What call was entered for Cc1ccc2c(c1)-c1c3c(nn1C)-c1ccccc1SC3O2 (stereo not given) ?
Result: inactive

Request: How was CN(O)C(=S)c1ccccc1 classified in this test?
Result: inactive

Request: Hi, sorry to bother you, what did the test record for O=C(COc1ccc(/C=C/C(=O)c2ccc(Cl)cc2)cc1)Nc1c(Cl)cccc1Cl ?
Result: inactive

Request: Hello, I am checking results. What call was entered for COc1ccc(C2=Nn3c(nc4sc(-c5ccccc5)cc4c3=O)SC2)cc1 ?
Result: inactive

Request: Dear all, I need the recorded test outcome for O=c1[nH]cc(/N=C/c2cc(Cl)cc(Cl)c2O)c(=O)[nH]1 , thank you.
Result: inactive

Request: Which outcome was assigned to CC(C)(C)OC(=O)C#CC[C@H]1CCCC1/C=C/C(O)=C1/C(=O)NC(CCCNC(=O)OC(C)(C)C)C1=O (stereo not given in full) in this test?
Result: inactive

Request: Just curious, what result did O=[N+]([O-])c1nccn1COCCO get here?
Result: inactive

Request: Each molecule tested received a call. Report the one for C=CCN1CN(C2CCCCC2)CSC1=S .
Result: inactive

Request: Dear all, I need the recorded test outcome for CN1CCN([C@H]2C[C@H]3[C@@H]4CC=C5C[C@@H](O)CC[C@]5(C)[C@H]4CC[C@]3(C)C2=O)CC1 , thank you.
Result: inactive

Request: I would be grateful if you could indicate the recorded call for O=C1C(/C=C/c2ccc(Cl)cc2)=NNC2N1N=C1NC(=O)C3(NN12)c1ccccc1-c1ccccc13 (stereo not given) .
Result: inactive

Request: Please let me know the test result on file for COC(=O)[C@@]1(C(C)CC(=O)O)CCCCC1=O (stereo not given in full) .
Result: inactive

Request: Tell me the assay call for Cc1nc(-n2nc(-c3ccccc3)cc2-c2ccccc2)sc1C(/C=C/c1ccc([N+](=O)[O-])cc1)=N/NC(N)=S please.
Result: inactive

Request: What call does the record list for O=C1Nc2ccc(S(=O)(=O)O)cc2/C1=N/Nc1ccccc1[N+](=O)[O-] ?
Result: inactive

Request: In this assay, the call recorded for CC1CC(C)CN(S(=O)(=O)c2cc(Cl)c(Oc3ccc([N+](=O)[O-])cc3Cl)c(Cl)c2)C1 (stereo not given) was what?
Result: inactive

Request: State the result this test recorded for C=CCc1cccc2cc(C(=O)Nc3nc(C45CC6CC(CC(C6)C4)C5)cs3)c(=O)oc12 .
Result: inactive

----------
System: OVCAR-5
Assay: NCI tumour cell line growth inhibition, 48 h
Active and inactive are the calls of the source. No stated cut-off is given here; in the data, active = GI50 up to about 1.1 µM and inactive = higher.
endpointLabel: GI50

Noted GI50 for CC1COC(c2cn[nH]c2C(N)=O)C1O (stereo not drawn) , tested on OVCAR-5: > 100 µM (inactive)

Recorded GI50 for Cc1cc(=O)cc2sc3c(C)cccc3nc1-2 on OVCAR-5 was 49.9 µM (inactive)

The compound O=C(O)C1CCCN1Cc1ccc2c(c1)OCO2 (stereo not drawn) , when measured on OVCAR-5, yielded GI50 of > 100 µM (inactive)

----------
Tested on: SK-MEL-28
Assay: NCI tumour cell line growth inhibition, 48 h
Active and inactive are the calls of the source. No stated cut-off is given here; in the data, active = GI50 up to about 1.1 µM and inactive = higher.
Your answer must be one of the following: yes (active), no (inactive)

Request: What did the test return for O=c1c2ccccc2[nH]c2c(O)ccc(O)c12 ?
Result: no

Request: Look up the recorded call for O=C1c2ccccc2C(=O)c2c1ccc1c3ccccc3n(-c3ccccc3)c21 in this test.
Result: no

Request: Which result was noted for this compound in the test: C=C1c2c(n(S(=O)(=O)c3ccccc3)c3ccccc23)[C@@]2(C(=O)OC)CC3C=CC2N1C3
Result: no

Request: Please share the test call associated with COc1cccc2c1C(=O)c1c(O)c3c(c(O)c1C2=O)C[C@@](O)(C(C)=O)C[C@@H]3OC1OC(C)C(O)C(N)C1Br (stereo partly drawn) .
Result: yes

Request: Which result was noted for this compound in the test: Oc1ccc(-c2nc(-c3ccc4ccccc4n3)c(-c3ccc(F)cc3)[nH]2)cc1
Result: no

Request: Hi, do you know how CC(=O)Nc1ccc(/C=C/[N+](=O)[O-])cc1 came out in this test?
Result: no

Request: Recorded test outcome, item COc1cc(/C=C2/SC(c3ccccc3)N(c3ccccc3)C2=O)cc(OC)c1OC (stereo not drawn)
Result: no

Request: Answer briefly: the call reported for CSc1c(C(N)=S)c(N)nn1-c1ccccc1 in this assay.
Result: no

Request: Give the logged outcome of this assay for the following compound: O=C1NCC(CSc2nc3cc(C4CCCc5c4[nH]c4ccccc54)ccc3o2)N1 (stereo not drawn)
Result: no

Request: State the result this test recorded for O=C1Nc2ccc(Br)cc2/C1=C/C(=O)c1ccccc1 .
Result: no

Request: // return assay outcome for CC(=O)c1cccn1/C=C(\OC(=O)OC(C)(C)C)c1ccc[nH]1
Result: no

Request: // outcome(item) with item = CCCCCCC(=O)C/C(=N/NC(N)=S)C(=O)NC1C2CC3CC(C2)CC1C3 (stereo not drawn)
Result: no

Request: Answer briefly: the call reported for C1=Cc2nccc3cc4c(c(c23)N1)OCO4 in this assay.
Result: no

Request: What outcome does the record of this test show for FC(F)(F)c1nc2cc(SSc3cc4nc(C(F)(F)F)[nH]c4cc3Cl)c(Cl)cc2[nH]1 ?
Result: no

Request: What was the test verdict on COC(=O)C1Cc2c(n(C)c3ccccc23)C(CCC(=O)O)N1Cc1ccccc1 (stereo not drawn) ?
Result: no

Request: Per the assay record, what outcome was assigned to C=C(Cl)/C(=C\Cl)CCC(Br)C(C)C (stereo not drawn) ?
Result: no

Request: What did this assay record as the result for CC/C(Cl)=N\OC(=O)Nc1ccc(OC)c(C)c1 ?
Result: no

Request: GET /call?item= CCn1c2ccccc2c2cc(NC(=O)c3c(C)[nH]c(=O)[nH]c3=S)ccc21 returns the recorded outcome of this test.
Result: no

Request: Which outcome did this test record for the compound CCOC(=O)c1cc2c3c(c(O)c(OC)c2s1)N(C(=O)c1cc2c4c(c(O)c(OC)c2s1)N(C(C)=O)CC4)CC3 ?
Result: no

Request: What classification did COC(=O)C(N)CCCC(N)C(=O)NC(C)C(=O)NC(CCC(=O)NCCCNc1ccc([N+](=O)[O-])c2[nH]c3ccccc3c(=O)c12)C(N)=O (stereo not drawn) end up with in this test?
Result: no

Request: Which outcome was entered for the compound COc1ccc(C(O)C(c2ccc(OCc3ccccc3)cc2)c2ccc(OCc3ccccc3)cc2)cc1 (stereo not drawn) in this test?
Result: no

Request: Check the results log: what was the call for Cc1c(C(=O)/C=C/C=C/c2ccccc2)[n+]([O-])c2ccccc2[n+]1[O-] ?
Result: no

Request: # outcome recorded in this test, key = Cc1cccc(NC(=O)/C=C/c2ccc([N+](=O)[O-])cc2)c1
Result: no
